# Test system: A. baumannii A489
# PROTOCOL_DETAILS: Preliminary MBC without and with sub-inhibitory polymyxin B (Example 4)
# Assay type: cell-based, Acinetobacter baumannii
# SETTINGS: Acinetobacter baumannii, A489, A. baumannii A489, without polymyxin B, 1st experiment, read-out: MBC without PB
# MBC per record follows
// return the numeric value with its unit appended

MOLECULE: C[C@@H](O)[C@H]1C(=O)N2C(C(=O)O)=C(S[C@@H]3CN[C@H](C(=O)N(C)C)C3)[C@H](C)[C@H]12 [Meropenem, reference compound]
SUBJECT_OF_TEST: A. baumannii A489
VALUE_KIND: MBC
OBSERVED_MEASUREMENT: 8 µg/mL
//
MOLECULE: C[C@H]1COc2c(N3CCN(C)CC3)c(F)cc3c(=O)c(C(=O)O)cn1c23 [Levofloxacin, reference compound]
SUBJECT_OF_TEST: A. baumannii A489
VALUE_KIND: MBC
OBSERVED_MEASUREMENT: 32 µg/mL
//
MOLECULE: Cc1c(-c2cc(F)c(N)cc2F)ccn2c(=O)c(C(=O)O)cc(C3CC3)c12 [Compound 2]
SUBJECT_OF_TEST: A. baumannii A489
VALUE_KIND: MBC
OBSERVED_MEASUREMENT: 2 µg/mL
//
MOLECULE: C[C@@H](O)[C@H]1C(=O)N2C(C(=O)O)=C(SCCN=CN)C[C@H]12 [Imipenem, reference compound]
SUBJECT_OF_TEST: A. baumannii A489
VALUE_KIND: MBC
OBSERVED_MEASUREMENT: 64 µg/mL
//
MOLECULE: Cc1c(-c2ccc(N)cc2)c(F)cn2c(=O)c(C(=O)O)cc(C3CC3)c12 [Compound 7]
SUBJECT_OF_TEST: A. baumannii A489
VALUE_KIND: MBC
OBSERVED_MEASUREMENT: 4 µg/mL

Task: Query MBC for Cc1c(-c2cc(Cl)c(N)c(Cl)c2)ccn2c(=O)c(C(=O)O)cc(C3CC3)c12 [Compound 3]
Output: 2 µg/mL

Task: Query MBC for Cc1c(-c2ccc(N)c(F)c2)c(F)cn2c(=O)c(C(=O)O)cc(C3CC3)c12 [Compound 17]
Output: 4 µg/mL

Task: Query MBC for Cc1c(-c2ccc(CN)c(F)c2)ccn2c(=O)c(C(=O)O)cc(C3CC3)c12 [Compound 4]
Output: 4 µg/mL

Task: Query MBC for Cc1c(-c2ccc(N)c(F)c2)ccn2c(=O)c(C(=O)O)cc(C3CC3)c12 [Compound 1]
Output: 8 µg/mL

----------
# MBC per record follows
# Tested on: A. baumannii A473
# PROTOCOL_DETAILS: Preliminary MBC without and with sub-inhibitory polymyxin B (Example 4)
# Assay type: cell-based, Acinetobacter baumannii
# SETTINGS: Acinetobacter baumannii, A473, A. baumannii A473, without polymyxin B, 1st experiment, read-out: MBC without PB
Kindly provide the numeric value in µg/mL only, without the unit symbol.

Examples with answers:
COMPOUND: Cc1c(-c2cc(Cl)c(N)c(Cl)c2)ccn2c(=O)c(C(=O)O)cc(C3CC3)c12
VALUE_KIND: MBC
ENDPOINT_UNIT: µg/mL
OBSERVED_MEASUREMENT: 4
--
COMPOUND: C[C@@H](O)[C@H]1C(=O)N2C(C(=O)O)=C(S[C@@H]3CN[C@H](C(=O)N(C)C)C3)[C@H](C)[C@H]12 [Meropenem, reference compound]
VALUE_KIND: MBC
ENDPOINT_UNIT: µg/mL
OBSERVED_MEASUREMENT: 64
--
COMPOUND: Cc1c(-c2ccc(N)c(F)c2)c(F)cn2c(=O)c(C(=O)O)cc(C3CC3)c12
VALUE_KIND: MBC
ENDPOINT_UNIT: µg/mL
OBSERVED_MEASUREMENT: 4
--
COMPOUND: Cc1c(-c2cc(F)c(N)cc2F)ccn2c(=O)c(C(=O)O)cc(C3CC3)c12
VALUE_KIND: MBC
ENDPOINT_UNIT: µg/mL
OBSERVED_MEASUREMENT: 2
--
COMPOUND: C[C@@H](O)[C@H]1C(=O)N2C(C(=O)O)=C(SCCN=CN)C[C@H]12 [Imipenem, reference compound]
VALUE_KIND: MBC
ENDPOINT_UNIT: µg/mL
OBSERVED_MEASUREMENT: 32

Task: Query MBC for `Cc1c(-c2ccc(N)cc2)c(F)cn2c(=O)c(C(=O)O)cc(C3CC3)c12`
Output: 4

Task: Query MBC for `Cc1c(-c2ccc(CN)c(F)c2)ccn2c(=O)c(C(=O)O)cc(C3CC3)c12`
Output: 4

Task: Query MBC for `Cc1c(-c2ccc(N)c(F)c2)ccn2c(=O)c(C(=O)O)cc(C3CC3)c12`
Output: 4
